src = patent US12605480B2

measurement-notes: Solubility of CORT in water and other solutions
Assay type: physicochemical
measurement-context: ddH2O and water-based solutions of 2% alginate and 12% acrylamide, 24 h
Experimental: The solubility of CORT in various water and other solutions were evaluated over a period of 24 h.
endpoint-name: solubility at 24 h

Ask | Supply recorded solubility at 24 h for CC1(C)O[C@@H]2C[C@H]3[C@@H]4CCC5=CC(=O)C=C[C@]5(C)[C@@]4(F)[C@@H](O)C[C@]3(C)[C@]2(C(=O)CO)O1 [Triamcinolone acetonide] here.
Reply | 10 to 100 µg/mL
